Test: Cytotoxicity test (CCK-8) in RAW264.7 cell
Type: cell-based, mouse
Details: mouse, RAW264.7 macrophage cells; 2.5 μM, 24 hours, vs negative control 0.2% DMSO; read-out: RAW264.7 cell viability (%, mean ± variation)
REPORTED_ENDPOINT: viability at 24 h, 2.5 µM (%)
Quick reminder: number only, in %, skip the unit.

Data request: Need viability at 24 h, 2.5 µM of CO[C@@H]1C[C@H]2[C@H](OC(=O)c3ccc(O)cc3)[C@@H]3O[C@]3(CO)[C@H]2[C@H](O[C@@H]2O[C@H](CO)[C@@H](O)C(O)[C@H]2O)O1 (stereo partly shown) , thanks.
Data returned: 99.6
